Assay: HCT116 colon cancer cell growth inhibition, primary screen, CellTiter-Glo luminescence, NPC library (AID 1117342)
Conditions: at 20 µM (top of the series)
Calls of active or inactive are those of the source.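 Rule for the calls: active = compounds that lower survival of HCT116 colon cancer cells in the luminescence readout, no numeric limit stated; inactive = the rest.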
Your response should consist of one outcome taken from active, inactive

Request: Tell me the recorded outcome of this test for CCN(CCO)CCCC(C)Nc1ccnc2cc(Cl)ccc12 (stereo not given) .
Response: inactive

Request: So what was the verdict on Cc1ccc2c(n1)Oc1ccc(C(C)C(=O)OCC(=O)N(C)C)cc1C2 (stereo not given) in this test?
Response: inactive

Request: Any idea what this test logged for CCCCCCn1c(=O)c2c(ncn2C)n(C)c1=O ?
Response: inactive

Request: Write down the call the test reported for this compound. Item: C[C@@H]1CCN(C(=O)[C@H](CCCN=C(N)N)NS(=O)(=O)c2cccc3c2NC[C@H](C)C3)[C@@H](C(=O)O)C1
Response: inactive

Request: Outcome? COc1cc([C@@H]2c3cc4c(cc3[C@H](O)[C@H]3COC(=O)[C@H]23)OCO4)cc(OC)c1OC
Response: active

Request: Entry CC(=O)S[C@@H]1CC2=CC(=O)CC[C@]2(C)[C@H]2CC[C@@]3(C)[C@@H](CC[C@@]34CCC(=O)O4)[C@H]12 : call = ?
Response: inactive

Request: Per the records of this test, what outcome belongs to Cc1c(I)c(=O)n(-c2ccccc2)n1C ?
Response: inactive

Request: What outcome does the record of this test show for CN[C@@H]1[C@H](O)[C@H](NC)[C@H]2O[C@@]3(O)C(=O)C[C@@H](C)O[C@H]3O[C@@H]2[C@H]1O ?
Response: inactive

Request: How did this test come out for N[C@@H](CSSC[C@H](N)C(=O)O)C(=O)O ?
Response: inactive

Request: So what was the verdict on CC(=O)c1ccc(O)c(C(N)=O)c1 in this test?
Response: inactive
